# reported CC50 at 3 days; entries follow
# procedure-details: in vitro
# condition-notes: dog, TOX MDCK CC50
Provide only the numeric value, understood in µM.

[ask] Which measured CC50 at 3 days value corresponds to Cc1scnc1C(=O)N[C@@H]1CCC[C@H](Nc2nc(-c3c[nH]c4c(F)cc(Cl)cc34)ncc2F)C1 ?
[reply] 7.4

Lab note: next molecule to report on.
[ask] What value of CC50 at 3 days has been reported for the following molecule? O=C(N[C@@H]1CCC[C@H](Nc2nc(-c3c[nH]c4c(F)cc(F)cc34)ncc2F)C1)c1nccs1
[reply] 6.1

----------
# procedure-details: in vitro
# condition-notes: dog, TOX MDCK CC50
attribute-measured: CC50 at 3 days

[ask] Report CC50 at 3 days for O=C(N[C@@H]1CCC[C@H](Nc2nc(-c3c[nH]c4c(F)cc(Cl)cc34)ncc2F)C1)c1cncnc1 please.
[reply] > 25 µM

[ask] Field request: CC50 at 3 days | item: Cc1cc(F)c2[nH]cc(-c3nc(N[C@@H]4CCC[C@@H](NC(=O)c5ccccn5)C4)c(F)cc3C#N)c2c1 (racemic)
[reply] > 25 µM

[ask] Recorded CC50 at 3 days of Cc1cn(C)nc1C(=O)N[C@@H]1CCC[C@H](Nc2nc(-c3c[nH]c4c(F)cc(F)cc34)ncc2F)C1 , please.
[reply] 7.6 µM

----------
attribute-measured: melting point (°C)
Reply numerically in °C, unit not repeated.

Please review the following examples before continuing.
[ask] // melting point lookup, key: O=C(O)c1ccccc1C(=O)N[C@@H]1CCC[C@H](Nc2nc(-c3c[nH]c4c(F)cc(F)cc34)ncc2F)C1 (relative stereo)
[reply] 201.5

[ask] What value of melting point has been reported for the following molecule? CS(=O)(=O)NCc1cc(F)c(N[C@@H]2CCC[C@H](NC(=O)N3CCCC3)C2)nc1-c1c[nH]c2c(F)cc(F)cc12 (racemic)
[reply] 252.1

[ask] What value of melting point has been recorded for this entry: Nc1cc(C(=O)N[C@@H]2CCC[C@H](Nc3nc(-c4c[nH]c5c(F)cc(F)cc45)ncc3F)C2)n[nH]1
[reply] 245.7

Shifting focus to the molecule that follows.
[ask] Quick one: melting point for Cn1nncc1C(=O)N[C@@H]1CCC[C@H](Nc2nc(-c3c[nH]c4c(F)cc(F)cc34)ncc2F)C1 ?
[reply] 285

----------
Each item that follows carries a reported CC50 at 3 days.
# procedure-details: in vitro
# condition-notes: dog, TOX MDCK CC50

Worked set:
[ask] What does the record list as CC50 at 3 days for Cc1cc(C(=O)N[C@H]2CCC[C@@H](Nc3nc(-c4c[nH]c5c(F)cc(F)cc45)c(C(F)(F)F)cc3F)C2)on1 (racemic) ?
[reply] 16.4 µM

[ask] Entry under review: Cc1cc(F)c2[nH]cc(-c3nc(N[C@@H]4CCC[C@@H](NC(=O)c5ncoc5C)C4)c(F)cc3C#N)c2c1 (racemic) . Reported CC50 at 3 days?
[reply] > 25 µM

Others:
[ask] Which CC50 at 3 days is listed for Cc1cccnc1C(=O)N[C@@H]1CCC[C@H](Nc2nc(-c3c[nH]c4c(F)cc(Cl)cc34)ncc2F)C1 ?
[reply] > 22 µM

[ask] Dear colleague, I am looking for the recorded CC50 at 3 days of the following compound: O=C(N[C@H]1CCC[C@@H](Nc2nc(-c3c[nH]c4c(F)cc(F)cc34)ncc2F)C1)N1CCCC1 (single isomer, unassigned)
[reply] > 25 µM

[ask] May I ask what CC50 at 3 days has been recorded for CC[C@@]1(C(=O)O)CCCC[C@H]1Nc1nc(-c2c[nH]c3c(F)cc(F)cc23)c(C#N)cc1F (relative stereo) ?
[reply] 0.4 µM

[ask] What does the record list as CC50 at 3 days for Cc1cc(F)c2[nH]cc(-c3nc(NC(CC(=O)O)C(C)(C)c4ccn(C)n4)c(F)cc3C#N)c2c1 (stereo not drawn) ?
[reply] 0.9 µM
